- Test system: E. coli (ATCC 25922)
- assay.details: Enhancement of erythromycin activity
- Type: cell-based, Escherichia coli
- stated.conditions: erythromycin fixed at 10.9 µM (8 µg/mL); E. coli (ATCC 25922)
Response field label: string, one of 1 (Eryth/E.c: concentration required to restore erythromycin activity (combination MIC) strictly below 100 µM) or -1.

Prompt line: Lab note: Eryth/E.c: concentration required to restore erythromycin activity (combination MIC) threshold 100 µM. Does this compound come in strictly under it? O=C(NCCCNCCCCCCCCCCCCNCCCNC(=O)c1cccc2ccccc12)c1cccc2ccccc12.O=C(O)C(F)(F)F.O=C(O)C(F)(F)F [Compound 17f]
Response line: 1

Prompt line: Lab note: Eryth/E.c: concentration required to restore erythromycin activity (combination MIC) threshold 100 µM. Does this compound come in strictly under it? O=C(CCC(=O)Nc1ccc(-c2ccccc2)cc1)NCCCNCCCCCCCCCCNCCCNC(=O)CCC(=O)Nc1ccc(-c2ccccc2)cc1.O=C(O)C(F)(F)F.O=C(O)C(F)(F)F [Compound 21e]
Response line: -1

Prompt line: Lab note: Eryth/E.c: concentration required to restore erythromycin activity (combination MIC) threshold 100 µM. Does this compound come in strictly under it? O=C(CCC(=O)Nc1cccc2ccccc12)NCCCNCCCCCCCCCCCCNCCCNC(=O)CCC(=O)Nc1cccc2ccccc12.O=C(O)C(F)(F)F.O=C(O)C(F)(F)F [Compound 18f]
Response line: 1

Prompt line: Lab note: Eryth/E.c: concentration required to restore erythromycin activity (combination MIC) threshold 100 µM. Does this compound come in strictly under it? O=C(NCCCNCCCCNCCCNC(=O)c1cccc2ccccc12)c1cccc2ccccc12.O=C(O)C(F)(F)F.O=C(O)C(F)(F)F [Compound 17a]
Response line: 1

Prompt line: Lab note: Eryth/E.c: concentration required to restore erythromycin activity (combination MIC) threshold 100 µM. Does this compound come in strictly under it? O=C(CCC(=O)Nc1ccc(-c2ccccc2)cc1)NCCCNCCCCNCCCNC(=O)CCC(=O)Nc1ccc(-c2ccccc2)cc1.O=C(O)C(F)(F)F.O=C(O)C(F)(F)F [Compound 21a]
Response line: -1

Prompt line: Lab note: Eryth/E.c: concentration required to restore erythromycin activity (combination MIC) threshold 100 µM. Does this compound come in strictly under it? O=C(CCC(=O)Nc1ccc(-c2ccccc2)cc1)NCCCNCCCCCCNCCCNC(=O)CCC(=O)Nc1ccc(-c2ccccc2)cc1.O=C(O)C(F)(F)F.O=C(O)C(F)(F)F [Compound 21b]
Response line: -1

Prompt line: Lab note: Eryth/E.c: concentration required to restore erythromycin activity (combination MIC) threshold 100 µM. Does this compound come in strictly under it? O=C(NCCCNCCCCCCCNCCCNC(=O)c1ccc2ccccc2c1)c1ccc2ccccc2c1.O=C(O)C(F)(F)F.O=C(O)C(F)(F)F [Compound 19c]
Response line: 1

Prompt line: Lab note: Eryth/E.c: concentration required to restore erythromycin activity (combination MIC) threshold 100 µM. Does this compound come in strictly under it? O=C(CCC(=O)Nc1cccc2ccccc12)NCCCNCCCCCCCCNCCCNC(=O)CCC(=O)Nc1cccc2ccccc12.O=C(O)C(F)(F)F.O=C(O)C(F)(F)F [Compound 18d]
Response line: -1

Prompt line: Lab note: Eryth/E.c: concentration required to restore erythromycin activity (combination MIC) threshold 100 µM. Does this compound come in strictly under it? O=C(CCC(=O)Nc1ccc2ccccc2c1)NCCCNCCCCCCNCCCNC(=O)CCC(=O)Nc1ccc2ccccc2c1.O=C(O)C(F)(F)F.O=C(O)C(F)(F)F [Compound 20b]
Response line: 1

Prompt line: Lab note: Eryth/E.c: concentration required to restore erythromycin activity (combination MIC) threshold 100 µM. Does this compound come in strictly under it? O=C(NCCCNCCCCCCCCCCCCNCCCNC(=O)c1ccc2ccccc2c1)c1ccc2ccccc2c1.O=C(O)C(F)(F)F.O=C(O)C(F)(F)F [Compound 19f]
Response line: -1

Prompt line: Lab note: Eryth/E.c: concentration required to restore erythromycin activity (combination MIC) threshold 100 µM. Does this compound come in strictly under it? O=C(CCC(=O)Nc1ccc2ccccc2c1)NCCCNCCCCCCCCCCCCNCCCNC(=O)CCC(=O)Nc1ccc2ccccc2c1.O=C(O)C(F)(F)F.O=C(O)C(F)(F)F [Compound 20f]
Response line: 1

Prompt line: Lab note: Eryth/E.c: concentration required to restore erythromycin activity (combination MIC) threshold 100 µM. Does this compound come in strictly under it? O=C(NCCCNCCCCCCCCCCNCCCNC(=O)c1cccc2ccccc12)c1cccc2ccccc12.O=C(O)C(F)(F)F.O=C(O)C(F)(F)F [Compound 17e]
Response line: -1

Prompt line: Lab note: Eryth/E.c: concentration required to restore erythromycin activity (combination MIC) threshold 100 µM. Does this compound come in strictly under it? O=C(NCCCNCCCCCCCCNCCCNC(=O)c1ccc2ccccc2c1)c1ccc2ccccc2c1.O=C(O)C(F)(F)F.O=C(O)C(F)(F)F [Compound 19d]
Response line: 1

Prompt line: Lab note: Eryth/E.c: concentration required to restore erythromycin activity (combination MIC) threshold 100 µM. Does this compound come in strictly under it? O=C(CCC(=O)Nc1cccc2ccccc12)NCCCNCCCCCCNCCCNC(=O)CCC(=O)Nc1cccc2ccccc12.O=C(O)C(F)(F)F.O=C(O)C(F)(F)F [Compound 18b]
Response line: -1

Prompt line: Lab note: Eryth/E.c: concentration required to restore erythromycin activity (combination MIC) threshold 100 µM. Does this compound come in strictly under it? O=C(NCCCNCCCCNCCCNC(=O)c1ccc2ccccc2c1)c1ccc2ccccc2c1.O=C(O)C(F)(F)F.O=C(O)C(F)(F)F [Compound 19a]
Response line: 1

Prompt line: Lab note: Eryth/E.c: concentration required to restore erythromycin activity (combination MIC) threshold 100 µM. Does this compound come in strictly under it? O=C(CCC(=O)Nc1ccc2ccccc2c1)NCCCNCCCCCCCCNCCCNC(=O)CCC(=O)Nc1ccc2ccccc2c1.O=C(O)C(F)(F)F.O=C(O)C(F)(F)F [Compound 20d]
Response line: 1

Prompt line: Lab note: Eryth/E.c: concentration required to restore erythromycin activity (combination MIC) threshold 100 µM. Does this compound come in strictly under it? O=C(CCC(=O)Nc1ccc2ccccc2c1)NCCCNCCCCCCCNCCCNC(=O)CCC(=O)Nc1ccc2ccccc2c1.O=C(O)C(F)(F)F.O=C(O)C(F)(F)F [Compound 20c]
Response line: 1

Prompt line: Lab note: Eryth/E.c: concentration required to restore erythromycin activity (combination MIC) threshold 100 µM. Does this compound come in strictly under it? O=C(CCC(=O)Nc1ccc(-c2ccccc2)cc1)NCCCNCCCCCCCNCCCNC(=O)CCC(=O)Nc1ccc(-c2ccccc2)cc1.O=C(O)C(F)(F)F.O=C(O)C(F)(F)F [Compound 21c]
Response line: -1

Prompt line: Lab note: Eryth/E.c: concentration required to restore erythromycin activity (combination MIC) threshold 100 µM. Does this compound come in strictly under it? O=C(NCCCNCCCCCCCCCCNCCCNC(=O)c1ccc2ccccc2c1)c1ccc2ccccc2c1.O=C(O)C(F)(F)F.O=C(O)C(F)(F)F [Compound 19e]
Response line: 1

Prompt line: Lab note: Eryth/E.c: concentration required to restore erythromycin activity (combination MIC) threshold 100 µM. Does this compound come in strictly under it? O=C(CCC(=O)Nc1cccc2ccccc12)NCCCNCCCCCCCCCCNCCCNC(=O)CCC(=O)Nc1cccc2ccccc12.O=C(O)C(F)(F)F.O=C(O)C(F)(F)F [Compound 18e]
Response line: 1
